- Test system: OVCAR-8 ovarian
Possible outcomes: TRUE for active, FALSE for inactive

> print(dat)
                                 itemsmiles  grouplabel
1  OCCCc1n(Cc2ccc3ccccc3c2)c2ccccc2[n+]1Cc1ccc2ccccc2c1       FALSE
2  CS(=O)(=O)Nc1ccc(Nc2c3ccccc3nc3cc([N+](=O)[O-])ccc23)cc1       FALSE
3  COc1cccc(C(=O)c2sc(Nc3ccc(N4CCN(C(C)C)CC4)cc3)nc2N)c1       FALSE
4  O=C(Cc1csc2nc(-c3ccc(Br)cc3)cn12)N/N=C/c1ccccc1       FALSE
5  CS(=O)(=O)c1ccc(Oc2cc(F)cc(C#N)c2)c2c1[C@H](O)[C@H](F)[C@H]2F       FALSE
6  Cc1nc2ccc(Nc3nc(Cl)nc(Nc4ccc(F)cc4)n3)cc2n1Cc1ccccc1       FALSE
7  COc1ccc(-c2nn(C(=O)NCCN(C)C)cc2-c2ccncc2)cc1Cl       FALSE
8  O=C1Nc2ccccc2/C1=C/C(=O)c1ccc(N2CCCC2)cc1       FALSE
9  COc1cc(/C=C2\CN(S(=O)(=O)c3ccc(C)cc3)C/C(=C\c3cc(CN4CCOCC4)c(O)c(OC)c3)C2=O)cc(CN2CCOCC2)c1O        TRUE
